Target: Neuropeptide Y receptor type 1 (Homo sapiens) (UniProt P25929)
Sequence (P25929 whole entry): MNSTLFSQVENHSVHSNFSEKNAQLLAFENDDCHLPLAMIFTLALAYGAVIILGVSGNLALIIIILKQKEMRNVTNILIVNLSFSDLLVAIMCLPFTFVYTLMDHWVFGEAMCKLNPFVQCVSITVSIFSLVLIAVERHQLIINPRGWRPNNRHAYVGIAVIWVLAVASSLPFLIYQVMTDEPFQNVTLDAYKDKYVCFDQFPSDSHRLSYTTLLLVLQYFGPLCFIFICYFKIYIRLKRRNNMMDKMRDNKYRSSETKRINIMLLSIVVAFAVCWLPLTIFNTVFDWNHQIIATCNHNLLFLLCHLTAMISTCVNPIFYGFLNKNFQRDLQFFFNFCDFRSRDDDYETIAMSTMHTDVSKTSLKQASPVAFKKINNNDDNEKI
Assay: Antagonist activity at NPY Y1 receptor in HEL cells assessed as inhibition of NPY-induced increase in intracellular calcium mobilization by Fura-2 assay
Format: functional, cell-based
measured_property: Kb (nM)
Just the number in nM, nothing appended.

Use the examples below as a reference point.
N/C(=N/C(=O)CCCn1cc(-c2ccccc2)nn1)NCCC[C@@H](NC(=O)C(c1ccccc1)c1ccccc1)C(=O)NCc1ccc(O)cc1 : 0.9
N/C(=N/C(=O)CCCn1cc(COCCOCCOCCOCCOCc2cn(CCCC(=O)/N=C(\N)NCCC[C@@H](NC(=O)C(c3ccccc3)c3ccccc3)C(=O)NCc3ccc(O)cc3)nn2)nn1)NCCC[C@@H](NC(=O)C(c1ccccc1)c1ccccc1)C(=O)NCc1ccc(O)cc1 : 1.8
N/C(=N/C(=O)CCCn1cc(-c2ccc(-c3cn(CCCC(=O)/N=C(\N)NCCC[C@@H](NC(=O)C(c4ccccc4)c4ccccc4)C(=O)NCc4ccc(O)cc4)nn3)cc2)nn1)NCCC[C@@H](NC(=O)C(c1ccccc1)c1ccccc1)C(=O)NCc1ccc(O)cc1 : 0.6

Could you now look at the following compound, please?
# value lookup — system Neuropeptide Y receptor type 1 (Homo sapiens) (UniProt P25929), readout Kb, item `N/C(=N/C(=O)COCCOCCOCC(=O)/N=C(\N)NCCC[C@@H](NC(=O)C(c1ccccc1)c1ccccc1)C(=O)NCc1ccc(O)cc1)NCCC[C@@H](NC(=O)C(c1ccccc1)c1ccccc1)C(=O)NCc1ccc(O)cc1`
7
